MEASURED ON: Solute carrier family 2, facilitated glucose transporter member 1 (Homo sapiens)
TEST DESCRIPTION: ST_JUDE_LEISH: Cytotoxicity at 2uM final concentration against transgenic Leishmania Mexicana promastigotes LmGLUT1 that are glucose transport deficient and complemented with the human glucose transporter GLUT1. Activity is measured by DNA content using SYBR green in vitro
Format: functional
// reported inhibition for each item listed
OUTCOME MEASURE: inhibition (%)

INSERT INTO measurements (compound, quantity_unit, result) VALUES
  ('CCCNCc1ccc(-c2ccc(CN(Cc3ccc4c(c3)OCO4)C(=O)Cc3cccnc3)cc2)nc1', '%', 23.9),
  ('Cn1nc(-c2ccc(CNC3CCc4ccccc43)cc2)c2cnc(NCCCN3CCCC3)nc21 (centres undefined)', '%', 7.46),
  ('CN(C)CCC1CCCc2ccc(NC(=O)Nc3cccc(Cl)c3Cl)cc21 (centres undefined)', '%', 1.81),
  ('O=C(NCC1COc2ccccc2O1)c1cnc2c(c1)nc(-c1c[nH]c(-c3ccccc3)n1)n2CCSCc1c(F)cccc1Cl (centres undefined)', '%', 4.51),
  ('CC(C)CN1C(=O)c2ccccc2C(C(=O)Nc2cccc(C#N)c2)C1c1cccs1 (centres undefined)', '%', -0.23),
  ('N#Cc1ccc(C(=O)Nc2cc(-c3cccc(O)c3)cc3[nH]ncc23)cc1', '%', 2.57),
  ('Cc1ccc(Cn2ncc(N3CCC(N)CC3)c(Cl)c2=O)cc1NC(=O)Nc1ccc(-c2ccccc2)cc1', '%', 14.2),
  ('O=C(Nc1ccc(S(=O)(=O)N2CCCCC2)cc1)c1cc(-c2cc(Cl)ccc2O)n[nH]1', '%', 6.03),
  ('N#Cc1cccc(NC(=O)Nc2cccc(-c3cccc(-c4nc5ccccc5[nH]4)c3)c2)c1', '%', 5.25),
  ('CN1CCN(CCCN(Cc2cccc(-c3cccc(CNCc4ccc5c(c4)OCO5)c3)c2)C(=O)CCC2CCCC2)CC1', '%', 16.7),
  ('Nc1nccc2ccc(-c3ccc4nccn4c3)cc12', '%', 3.49),
  ('Cc1cc(O)nc(NC#N)n1', '%', 2.54),
  ('CN1CCN(c2ccnc3ccc(NC(=O)Nc4cccc5c(-c6ccncc6)cccc45)cc23)CC1', '%', -0.27),
  ('O=C(/C=C/c1ccc(Cl)c(Cl)c1)NCCCCCN1CCC(c2n[nH]c(-c3ccccc3)c2Br)CC1', '%', 1.29),
  ('O=[N+]([O-])c1ccc(C2=NN(S(=O)(=O)c3c(Cl)cc(Cl)cc3Cl)CCCC2)cc1', '%', 0.34),
  ('O=C(Nc1ccc(Cl)cc1)Nc1ccc(-c2ccc(-c3nc4ccccc4[nH]3)cc2)cc1', '%', 2.4),
  ('O=[N+]([O-])c1ccccc1C=NN=c1cc[nH]c2ccccc12', '%', -2.55),
  ('COCCOc1ccc(Nc2nccc(-c3c(-c4cccc(NC(=O)c5c(F)cccc5F)c4)nn4ccccc34)n2)cc1Cl', '%', 13.5),
  ('CCN(CC)CCN(Cc1ccc(-c2ccc(C(F)(F)F)cc2)cc1)C(=O)Cn1cc(CCCc2cccc(F)c2F)c(=O)c2ccccc21', '%', 4.03);

---

MEASURED ON: Hexose transporter 1 (Plasmodium falciparum)
TEST DESCRIPTION: ST_JUDE_LEISH: Cytotoxicity at 2uM final concentration against transgenic Leishmania Mexicana promastigotes LmPfHT that are glucose transport deficient and complemented with the Plasmodium falciparum hexose transporter. Activity is measured by DNA content using SYBR green in vitro
Format: functional
Consider the following compounds and their measured inhibition readings.
OUTCOME MEASURE: inhibition (%)

INSERT INTO assay_data (compound, outcome_measure, result) VALUES
  ('Fc1ccc2[nH]c(-c3ccc(-c4ccc(CNCC5CCCO5)cc4)s3)nc2c1 (centres undefined)', 'inhibition', 9.33),
  ('CCCc1c(Cl)cc(CNCCCNc2nc3ccncc3[nH]2)cc1Cl', 'inhibition', 3.89),
  ('O=C(Nc1cc(Cl)c(Cl)cc1NC(=O)c1cccc(-c2ccccc2)c1O)c1cccc(-c2ccccc2)c1O', 'inhibition', 0.97),
  ('N#Cc1ccc(-c2ccc(C(=O)NC3CCN(CCN4CCC(c5cn(CCO)c6ccccc56)CC4)CC3)cc2)cc1', 'inhibition', 1.27),
  ('Cc1nc(C)c(-c2ccc(S(=O)(=O)c3ccc(Cl)cc3)cc2)c(O)c1Cl', 'inhibition', 5.86),
  ('CCc1ccc(NC(=O)c2ccc(CN3CCCN(Cc4cccc(Cl)c4)CC3)cc2)cc1', 'inhibition', 2.69),
  ('CC1(C)C(N(O)C(=O)Nc2ccc(Cl)c(Cl)c2)N(c2ccc(Cl)c(Cl)c2)C(=O)N1CCc1ccccc1 (centres undefined)', 'inhibition', 0.2),
  ('O=c1ccc2ccc(F)c3c2n1CC3CN1CCC(NCc2ccc(-c3cccc(Cl)c3)nc2)CC1 (centres undefined)', 'inhibition', 21.3),
  ('Cc1cccc2nc(-c3cccc(-c4ccc(NC(=O)C(C)CN5CCOCC5)cc4)c3)[nH]c12 (centres undefined)', 'inhibition', 2.93);
